target: R6-GST (synthetic construct, UniProt P08515 =RRRRRR+1-218, internal_change); test: ITC; 25 C; n 2.61; Table 1 dG -35.8 kJ/mol would fit about 532 nM (R6/R8 possibly swapped); ITC: 50 mM phosphate pH 7.6, 207 mM NaCl, 25 C; pull-down: AS1 buffer (composition not given), 4 C, or ARGI buffer (50 mM Tris-HCl, 300 mM NaCl, 5 mM EDTA, 0.01% Tween 20, pH 7.5); conditions: protein: recombinant; tags: N-terminal R6 (CPP tag under study); chain copies: 2; label: 5'-biotin (pull-down); four mfold structures predicted
Measured Property: pKd
Quick note: pKd means taking -log10 of the concentration in moles per liter.

Task item: Using the record for CTTTGTAATTGGTTCTGAGTTCCGTTGTGGGAGGAACATG (ssDNA) [AR aptamer (24-10 nt 31-70; 5'/-30 and 3'/-10)] , state its measured pKd.
Reply: 6.03
